# test_summary: qHTS screen for small molecules that inhibit ELG1-dependent DNA repair in human embryonic kidney (HEK293T) cells expressing luciferase-tagged ELG1; also: nearly all actives have a fitted effect of over 55% in size
# condition_parameters: HEK293T ELG1-luciferase reporter, luminescence, 16 h, DNA damage induced by 5-fluorouridine; series mostly up to 46.1 µM
Among all 330,000 compounds or so, about 7,700 (2.3%) were called active. Not shown: some 26% with an inconclusive outcome. Calls follow the shape of the dose curve; as a rule, active = well fitted inhibition curve with a large enough effect; inconclusive = small, poorly fitted or top-dose-only effect, or effect the other way; inactive = flat fitted curve, though single readings scatter. The sample as a whole holds a higher share of actives than the screen did.
Assign a class; possible classes are active, inactive

Solved cases (5 shown):
• CS(=O)(=O)c1ccc2nc(NC(=O)C3CCCCC3)sc2c1 = active
• Cc1ccc(C)c(Cn2nnc3c(=O)[nH]c(C(=O)Nc4ccc(F)cc4)nc32)c1 = inactive
• Cc1ccc2nc(SCC(=O)N3CC(C)OC(C)C3)nc(=O)n2c1 (configuration not stated) = inactive
• COCCn1cnnc1SCC(=O)Nc1cccc(S(=O)(=O)N2CCCCC2)c1 = inactive
• CC(C)CCn1cnc2c1c(=O)n(CC(=O)NC(N)=O)c(=O)n2Cc1ccccc1 = inactive

Test call for this compound, please: Cc1cccc(C(=O)NCC(=O)OCC(=O)N2CC3(C)CC2CC(C)(C)C3)c1 (configuration not stated) inactive

Test call for this compound, please: CCOc1ccc(NC(=O)COc2ccc(C(=O)N3CCC(C(N)=O)CC3)cc2OC)cc1 inactive

Test call for this compound, please: CS(=O)(=O)c1ccc2nc(NC(=O)CN3CCCCCC3)sc2c1 inactive

Test call for this compound, please: COc1ccc(CN(C)C(=O)Cc2c[nH]c3ccccc23)c(OC)c1OC inactive

Test call for this compound, please: Cc1nn(-c2ccccc2)c(C)c1/C=N/NC(=O)CSc1nc2ccccc2c(=O)n1-c1ccccc1 active

Test call for this compound, please: COc1ccc(CCNC(=O)COC(=O)c2cnc(Cl)c(Cl)c2)cc1 inactive

====

# test_summary: qHTS screen for small molecules that inhibit ELG1-dependent DNA repair in human embryonic kidney (HEK293T) cells expressing luciferase-tagged ELG1; also: nearly all actives have a fitted effect of over 55% in size; also: potency is read from the fitted curve at half-maximal effect
# condition_parameters: HEK293T ELG1-luciferase reporter, luminescence, 16 h, DNA damage induced by 5-fluorouridine; series mostly up to 46.1 µM
Screen size: about 330,000 compounds; about 7,700 (2.3%) were called active. Another 26% or so got no clear call; they are omitted. Shown is part of a subset that was picked to be rich in actives.
measurement_type: Potency

Here's what some known entries look like.
* Cn1c(CNC(=O)c2ccco2)nnc1SCC(=O)N1CCN(c2ccccc2)CC1 | inactive
* Cc1ccc(NC(=O)C2CCC(C(C)(C)C)CC2)cc1S(=O)(=O)N1CCOCC1 (centres undefined) | 23.1 µM (active)
* COc1ccc(NS(=O)(=O)c2ccc(C)c(C(=O)N(C)Cc3ccc(OC)cc3OC)c2)cc1 | inactive
* COc1ccc(CCN(C(=O)COc2ccccc2)c2nc(-c3ccccc3)cs2)cc1OC | 23.1 µM (active)
* CCCNC(=O)Nc1ccccc1C(=O)Nc1ccc(OC)cc1 | inactive

The reported value for CN1CCN(C(c2cc3cc4c(cc3[nH]c2=O)OCCO4)c2nnnn2C2CCCC2)CC1 (centres undefined) in terms of Potency is inactive

The reported value for Cc1cc(Br)ccc1NC(=O)c1cnc(N2CCN(c3ccccn3)CC2)c2ccccc12 in terms of Potency is 11.6 µM (active)

The reported value for Cn1c(Cc2cccc3ccccc23)nnc1SCC(=O)N1CCN(c2cccc(Cl)c2)CC1 in terms of Potency is 18.4 µM (active)

The reported value for CCOc1ccc(N(CC)S(=O)(=O)c2cccc3nsnc23)cc1 in terms of Potency is inactive

The reported value for NC(=O)c1ccc(Nc2ccc3nonc3c2[N+](=O)[O-])cc1 in terms of Potency is inactive
